Molecular target: beta-catenin/TCF4 engagement (Homo sapiens, UniProt P35222)
Construct: expressed in transfected cells; host or cells: HEK293
Sequence (P35222 whole entry): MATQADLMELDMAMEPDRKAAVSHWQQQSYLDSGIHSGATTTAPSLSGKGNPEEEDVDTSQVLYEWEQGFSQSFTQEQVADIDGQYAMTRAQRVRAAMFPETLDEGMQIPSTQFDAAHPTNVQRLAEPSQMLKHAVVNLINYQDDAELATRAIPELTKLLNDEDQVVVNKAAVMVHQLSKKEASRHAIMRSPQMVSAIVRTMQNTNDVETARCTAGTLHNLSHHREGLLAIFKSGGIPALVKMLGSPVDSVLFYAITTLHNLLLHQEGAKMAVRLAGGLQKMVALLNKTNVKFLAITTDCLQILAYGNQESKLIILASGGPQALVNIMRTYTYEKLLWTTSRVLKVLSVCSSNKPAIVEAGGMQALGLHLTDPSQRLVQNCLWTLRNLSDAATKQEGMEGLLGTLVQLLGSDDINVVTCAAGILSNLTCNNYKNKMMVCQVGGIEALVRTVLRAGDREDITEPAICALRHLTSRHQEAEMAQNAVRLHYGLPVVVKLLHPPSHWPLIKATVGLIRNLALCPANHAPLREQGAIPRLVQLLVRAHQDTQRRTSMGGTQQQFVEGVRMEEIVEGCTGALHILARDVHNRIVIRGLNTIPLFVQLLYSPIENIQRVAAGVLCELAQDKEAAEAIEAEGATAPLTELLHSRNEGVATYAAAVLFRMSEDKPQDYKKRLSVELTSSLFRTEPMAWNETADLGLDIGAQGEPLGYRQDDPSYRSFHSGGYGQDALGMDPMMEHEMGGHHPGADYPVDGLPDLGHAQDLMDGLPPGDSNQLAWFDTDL
Assay: Nano-BRET target engagement assay (B-cat-Halo & TCF4-Luc in HEK293 cells)
Assay type: cell-based
Conditions: absolute IC50; read-out: NanoBRET Abs IC50
Returns: string. Value is Met if measured IC50 is below 10 µM, and Not met if it is greater than or equal to it.

1. CC(=O)N1CCC[C@]12CC=CCCCC1(CCCC=CCCCOC(=O)N3CC[C@@](C(=O)N[C@@H](Cc4ccccc4Cl)C(=O)N[C@@H](Cc4csc5ccccc45)C(=O)N[C@H](C(N)=O)[C@@H](C)O)(C3)NC(=O)[C@H](CCCCNC(C)C)NC(=O)[C@H](Cc3ccccc3)NC(=O)[C@H](C)NC(=O)[C@H](C)NC(=O)[C@H](CC(=O)O)NC(=O)[C@H](CC(=O)O)NC1=O)NC(=O)[C@H](CC(C)(C)C)NC(=O)[C@H](CC(=O)O)NC2=O (stereo partly drawn) : Not met
2. CCCC[C@@H]1NC(=O)[C@H](CC(=O)O)NC(=O)[C@]2(CC=CCCCC3(CCCC=CCCCCCC[C@@](C)(C(=O)N[C@@H](Cc4ccccc4)C(=O)N[C@@H](Cc4csc5ccccc45)C(=O)N[C@@H](CCC(N)=O)C(N)=O)NC(=O)[C@H](CCO)NC(=O)[C@H](Cc4ccccc4)NC(=O)[C@H](C)NC(=O)[C@H](C)NC(=O)[C@H](CCC(=O)O)NC(=O)[C@H](CC(=O)O)NC3=O)NC1=O)CCCN2C(C)=O (stereo partly drawn) [I-1524] : Met
3. CC(=O)N1CCC[C@]12CC=CCCCC1(CCCC=CCCCOC(=O)N3CC[C@@](C(=O)N[C@@H](Cc4ccsc4)C(=O)N[C@@H](Cc4csc5ccccc45)C(=O)N[C@@H](CCC(N)=O)C(N)=O)(C3)NC(=O)[C@H](CC(C)C)NC(=O)[C@H](Cc3ccccc3)NC(=O)[C@H](C)NC(=O)[C@H](C)NC(=O)[C@H](CCN(CC(=O)O)C(=O)Cc3c(F)c(F)c(F)c(F)c3F)NC(=O)[C@H](CC(=O)O)NC1=O)NC(=O)[C@H](CC(C)(C)C)NC(=O)[C@H](CC(=O)O)NC2=O (stereo partly drawn) : Met
4. CC(=O)N1CCC[C@]12CC=CCCCC1(CCCC=CCCCOC(=O)N3CC[C@@](C(=O)N[C@@H](Cc4ccccc4C(F)(F)F)C(=O)N[C@@H](Cc4csc5ccccc45)C(=O)N[C@@H](C)C(N)=O)(C3)NC(=O)[C@H](CC(C)C)NC(=O)[C@H](Cc3ccccc3)NC(=O)[C@H](C)NC(=O)[C@H](CCC(=O)N3CCC(N4CCCCC4)CC3)NC(=O)[C@H](Cc3cccc(C(=O)O)c3)NC(=O)[C@H](CC(=O)O)NC1=O)NC(=O)[C@H](CC(C)(C)C)NC(=O)[C@H](CC(=O)O)NC2=O (stereo partly drawn) : Not met
5. CC(=O)N1CCC[C@]12CC=CCCCC1(CCCC=CCCCCCC[C@@](C)(C(=O)N[C@@H](Cc3ccsc3)C(=O)N[C@@H](Cc3csc4ccccc34)C(=O)N[C@@H](CCC(N)=O)C(N)=O)NC(=O)[C@H](CCO)NC(=O)[C@H](Cc3ccccc3)NC(=O)[C@H](C)NC(=O)[C@H](C)NC(=O)[C@H](CC(=O)O)NC(=O)[C@H](CC(=O)O)NC1=O)NC(=O)[C@H](CC(C)(C)C)NC(=O)[C@H](CC(=O)O)NC2=O (stereo partly drawn) : Met
6. CC(=O)N1CCC[C@]12CC=CCCCC1(CCCC=CCCCOC(=O)N3CC[C@@](C(=O)N[C@@H](Cc4ccccc4Cl)C(=O)N[C@@H](Cc4csc5ccccc45)C(=O)N[C@@H](CCC(N)=O)C(N)=O)(C3)NC(=O)[C@H]([C@@H](C)O)NC(=O)[C@H](Cc3ccccc3)NC(=O)[C@H](C)NC(=O)CNC(=O)[C@H](CN(CC(=O)O)CC(F)(F)F)NC(=O)[C@H](CC(=O)O)NC1=O)NC(=O)[C@H](CC(C)(C)C)NC(=O)[C@H](CC(=O)O)NC2=O (stereo partly drawn) : Not met
7. CC(=O)N1CCC[C@]12CC=CCCCC1(CCCC=CCCCOC(=O)N3CC[C@@](C(=O)N[C@@H](Cc4ccccc4)C(=O)N[C@@H](Cc4csc5ccccc45)C(=O)N[C@@H](CCC(N)=O)C(N)=O)(C3)NC(=O)[C@H](CC(N)=O)NC(=O)[C@H](Cc3ccccc3)NC(=O)[C@H](C)NC(=O)[C@H](C)NC(=O)[C@H](CCC(=O)O)NC(=O)[C@H](CC(=O)O)NC1=O)NC(=O)[C@H](C)NC(=O)[C@H](CC(=O)O)NC2=O (stereo partly drawn) : Not met
8. CC(=O)N1CCC[C@]12CC=CCCCC1(CCCC=CCCCOC(=O)N3CC[C@@](C(=O)N[C@@H](Cc4ccsc4)C(=O)N[C@@H](Cc4csc5ccccc45)C(=O)N[C@H](CO)[C@@H](C)O)(C3)NC(=O)[C@H](CCO)NC(=O)[C@H](Cc3ccccc3)NC(=O)[C@H](C)NC(=O)[C@H](C)NC(=O)[C@H](CC(=O)O)NC(=O)[C@H](CC(=O)O)NC1=O)NC(=O)[C@H](CC(C)(C)C)NC(=O)[C@H](CC(=O)O)NC2=O (stereo partly drawn) : Met
9. CC(=O)N1CCC[C@]12CC=CCCCC1(CCCC=CCCCOC(=O)N3CC[C@@](C(=O)N[C@@H](Cc4ccccc4C(F)(F)F)C(=O)N[C@H](C(=O)N[C@@H](C)C(N)=O)[C@@H](C)c4csc5ccccc45)(C3)NC(=O)[C@H](CC(C)C)NC(=O)[C@H](Cc3ccccc3)NC(=O)[C@H](C)NC(=O)[C@H](CCC(N)=O)NC(=O)[C@H](Cc3cccc(C(=O)O)c3)NC(=O)[C@H](CC(=O)O)NC1=O)NC(=O)[C@H](CC(C)(C)C)NC(=O)[C@H](CC(=O)O)NC2=O (stereo partly drawn) : Not met
